Kindly state PBM binding z-score for each of the entries shown.
system: LXRb homodimer (NR concentration 270 nM); assay: PBM binding z-score (relative to random genomic background probes); higher = stronger binding; sequences stand for … in GC…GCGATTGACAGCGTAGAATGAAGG
One number for each entry.

Please supply PBM binding z-score for each of the following items, keeping them in order.
1. TAGGCTAGGTCATTGGGCCAGTATAGTACGCATC
2. GCTGCTAGGTCAACTGATGGTCAGCTACAGCTCG
3. GCTAGTTGGTCACTAAAAGGTCACACACCGGTCG
4. TAGCCTAGGTCATTGGGCCAGTACAGTACGCATC
5. CAAACTGGGTCACGAAAGGTCAAAGTCGAATGAC
6. TCTTCTAGGTCAACGATGGTCAGCTAATCTGCTA
7. TCTGGTAGATCAGCAGGTTAAGAAAGCTGGCCAA

Response:
[0.37, 0.014, 0.864, 0.354, 2.08, 2.65, -1.12]

----------
system: PPARg:RXRa IVT, anti-PPARg (NR concentration 270 nM, RXRa partner concentration 90 nM); assay: PBM binding z-score (relative to random genomic background probes); higher = stronger binding; sequences stand for … in GC…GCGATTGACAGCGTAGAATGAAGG
Provide the recorded PBM binding z-score for the entries that follow.
Answers are plain numbers.

Query: Which value of PBM binding z-score has been reported for "CCTAGTAGGCCAATCTGGGTCACTCAAGGCTTGA" in the records?
Response: 6.35

Consider the following items and state reported PBM binding z-score for each.
1. CAAACAGGGTCAGCTAGGCCAGAGTAGGGACGGC
2. TGTATTAGTTGAAGGGCAACCGACGAGTCCGTTT
3. CAGCCTAGGTCAGGGCCAGTACAGGAGGAACGTT
4. AATTACGGGTCAACGAGGTTATAGCACGCGTATA

Response:
2.9
0.87
1.58
5.01

Query: Query (sequence): "CCACGGAGGACAACAGGAGGTCAGAGCTGCCAGA" ; field requested: PBM binding z-score
Response: 0.453

----------
tested on: RXRa homodimer (NR concentration 180 nM); assay: PBM binding z-score (relative to random genomic background probes); higher = stronger binding; sequences stand for … in GC…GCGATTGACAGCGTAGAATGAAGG
MEASURED QUANTITY: PBM binding z-score
Give bare numbers.

Some entries whose results are on file:
Query: Can you look up the measured PBM binding z-score of "CCGAGTAGGTTGTGGGGCATTCAGGCAACGGTGA" for me?
Response: -0.326

Query: Another sequence to check: "CAAACTAGGTCACCGGAAGGTCAAAGTGCGCATG"
Response: 6.73

Query: Query "GCGACTGGGGCATCAGCGGGTTACCATAACTTAA" next
Response: 0.347

Query: One more sequence: "TAGCCTAGGTCATGCAGGGGCCAGTATAGAAAGC"
Response: 3.12

Query: Next entry: "AGAATGAGGTTATTAAGAGCAGGGAATTGCGGTC"
Response: 1.48

Query: Consider next the sequence "CAAACTAGGTCACCGGAAGGTCAAAATCCGCATG" in the same way.
Response: 5.88

I need PBM binding z-score for every entry listed below, if you could help.
1. CCTGCTAGGTTAATGGTCAGCTAAAGCAGCTCGC
2. CTCGAAAGGCCGGTTGAGGTGAGTATACGGATAA
3. CCAGACAGGTGAAAGGTAACTGAGTCTGGTACGC
4. CGAACTAGCTCAGAACAGGACAGTGAAGGATGAT
5. CGTCCAAGTTCATAGGAGGTCAGTGAAGACAGAT
6. ATCAAAAGGTCGACGAGGTGAGTATACACCGTTT

Response:
[0.173, -0.037, 2.19, -0.191, 3.69, 4.69]

----------
test system: RARb homodimer (NR concentration 270 nM); experiment: PBM binding z-score (relative to random genomic background probes); higher = stronger binding; sequences stand for … in GC…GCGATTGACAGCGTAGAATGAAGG
What PBM binding z-score was measured for each of the following?
Answers are plain numbers.

These recorded examples may help you get a feel for the data.
Query: Give its PBM binding z-score value. Item: "CTCGAAAGGTCGTGCCCAGGTGAGTATACCAAAC"
Response: 2.89

Query: Please answer likewise for "TCTAGTTGCTCAAAGGTCACACACTCGAAATGCG"
Response: 5.02

Query: Now consider "CCTTACGGGTCACTCCAGGTTATCGCATCGGAGT" .
Response: 3.25

Query: Same thing, different sequence: "TCATGTAGATCAACAGGAGGTTAAGAAAGATCGA"
Response: 0.329

Query: Let us now turn to "ATTCAAAGTTCAGGACGAGGTAACGTAAAGCACG"
Response: 3.31

Query: Same lookup for "TGAACGAGGTTAAAGATCAGGGAACGTGGCGTCG" , please.
Response: 0.576

Query: Now this one: "ACAGACAGGTCATGAAGGTAACTCAGGCTATCAT"
Response: 3.05

Query: What do you get for "GCTATTAGTTGAAAGGGCATCCGAATGATTCTCG" ?
Response: 1.52

Query: Next: "CGAACGAGGGCAGGAGTTGATAGCAAATGCCGAT"
Response: 0.754

Query: Could you do the same for "CCTACTGGCCCAAAGGTCATTGATTCCAATGCTC" , please?
Response: 4.89

# return PBM binding z-score for each item in the list
1. ATCGAAAGGTCGAATGTGAGTATACCCACCCGAA
2. CCTACTGGGCCAAAAAGGTGATTGATGCCGATAA

Response:
1. 2.63
2. 0.483

----------
Consider the following sequences; for each one, report its PBM binding z-score.
tested on: LXRb homodimer (NR concentration 270 nM); assay: PBM binding z-score (relative to random genomic background probes); higher = stronger binding; sequences stand for … in GC…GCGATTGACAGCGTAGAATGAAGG
Answers are plain numbers.

Study these solved cases before continuing.
Query: Recorded PBM binding z-score of "GGAACGAGGGCATTAGAGTTGATAGCATGGCGAT" , please.
Response: -0.699

Query: Now give it for "GCTGCTAGGTCAACTGATGGTCAGGTAAAGCTCG" too.
Response: 0.0406

Query: // same read-out, input: "ATCTCTAGGTAACCAAGTTCAGCGAATGCCGAAC"
Response: 0.602

Query: Would you kindly repeat that for "TTACCAAGGTGAAGGTCGCTGATCCCTCTGTAGA" ?
Response: -1.18

Query: How about this sequence: "AGTTAAAGTTCATCTAGGTAACGTAAGATATGCT"
Response: 2.33

# next sequence below
Query: Item "GCTAGTTGGTCAGTAATAGGTCACACACCGGTCG" has what recorded PBM binding z-score?
Response: 0.0415

----------
tested on: VDR:RXRa (NR concentration 270 nM, RXRa partner concentration 90 nM); experiment: PBM binding z-score (relative to random genomic background probes); higher = stronger binding; sequences stand for … in GC…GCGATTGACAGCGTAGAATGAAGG
MEASURED QUANTITY: PBM binding z-score
One number for each entry.

Query: Hi! What's the reported PBM binding z-score for "ATATGTGGGTTAAGGGTCATTCAGGTTGGTTCGC" on VDR:RXRa (NR concentration 270 nM, RXRa partner concentration 90 nM)?
Response: 5.79

Query: Another sequence: "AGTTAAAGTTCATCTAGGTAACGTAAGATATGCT"
Response: 4.42

Query: Please do the same for "CGTCAAAGTTCAAGTAAGGTAACGTAAAGCACGC" as well.
Response: 4.46

Query: // query: "AATAGAGGGTCATCGTAGGCCAGAGTACGCACAG"
Response: 4.64

Query: One more sequence: "TCGTATAGGTAAAGGTGAAAGTCGAACGATATGA"
Response: 0.788

Below are 5 sequences. Give each one its PBM binding z-score.
1. CCGACTGGGGCATAAGGTTACCATTAGCCAGCCC
2. TCTAGCAAGCCAGAGGGTCACTCAAGAGGTACGG
3. ATCTCTACGTAACCAAGTTCAGTGAATGCCGAAC
4. GCTACCAGGCCATTTGGGTCACTCAATGACGGGC
5. TCTTGTAGACCAGCAGGTTAAGAAAGCTGGCCAA

Response:
[-0.0219, 1.32, 1.17, 1.36, 0.209]

Parameters: items (list). Returns: PBM binding z-score for each item.
1. ATCTCGAGGTAACAAGTTCAGTGAAAGAGAGGAC
2. CATGCAGGGTCAGCTAGGCCAGAGTAGGGACGGC

Response:
1: 2.63; 2: 3.97

----------
test system: PXR homodimer (NR concentration 270 nM); assay: PBM binding z-score (relative to random genomic background probes); higher = stronger binding; sequences stand for … in GC…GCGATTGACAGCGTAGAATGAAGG
Would you kindly list PBM binding z-score for each of these sequences?
One number for each entry.

// worked examples, PBM binding z-score included
Query: What is its PBM binding z-score for PXR homodimer (NR concentration 270 nM)? Entry: "TCTTGTAGAACAGCAGGTTAAGAAAGCTGGCCAA"
Response: -0.772

Query: # repeat for "AGAATGAGGTTATTAAGATCAGTGAATTGCGGTC"
Response: 0.788

Query: Would you mind doing "ATATGTAGGGTACATCCGGGTCATTCAGGCTATG" as well?
Response: 9.27

Query: Entry to check: "GGAGCGAGGGCAAGTTGATAGCAGAGTTTGATGG"
Response: 0.345

Query: Next up: "CAAACTAGGTCAGAGAGGTCAAAGTCCGTGCGTA"
Response: 10.2

Provide reported PBM binding z-score for each item, in the same order as listed.
1. TTACCAAAGTGAAGGTCGTTGATCCCTCTGTAGA
2. TCTGCAAGGTCAGTTGGTCAGCTAACGAGCTGCC
3. CCTTACGGGTCAAGGTTATAACACGGGTGGTACG
4. TCAGATAGGTAATACAGGTGAAAGTCGGCATCTA

Response:
0.234
-0.237
0.548
0.387

Hello, I would appreciate it if you could give PBM binding z-score for each entry below.
1. CGAACTAGGCCAGAACAGGACAGTGAAGGATGAT
2. CGTCAAAGTTCAACTAAGGTACCGTAAAGCACGC
3. TCTCGGAGGACACGAGAGGTCAGAGCTCGACATC

Response:
1. -0.145
2. 3.81
3. 0.385
